Tested on: β-galactosidase in CMV-LacZ C2C12 myotubes
Protocol Notes: CMV-LacZ secondary screen in C2C12 myotubes (β-Gal stabilizing assay)
Type: cell-based, mouse
Test Conditions: 40 uM; C2C12 CMV-LacZ myotubes; fold relative to DMSO
Source text: In order to determine compounds that acted to stabilize β-gal in myogenic cells, a CMV-LacZ C2C12 cell line was used in a secondary screen. The EGFP gene from the pEGFP (Clontech) vector was replaced by LACZ PCR product with digests of the vector/PCR product performed using EcoRI (NEB) and NotI (NEB) and ligated using T4 DNA Ligase (NEB) following standard procedures to produce the CMV-LACZ vector. […]
Experimental Endpoint: CMV-LACZ in Myotubes, signal relative to DMSO
Provide a numeric answer; units are not to be included.

The examples below pair each entry with its known result.
O=c1c2cc(-c3ccccc3)sc2nc2n1N=C(c1ccccc1)CS2 [MLS000858981-01] : 1.0000
Cc1cc(NC(=O)CN2C(=O)/C(=C/c3ccccc3F)SC2=S)no1 [MLS001219159-01] : 1.023

Attention now shifts to the item below.
Quick check: CMV-LACZ in Myotubes, signal relative to DMSO of Cc1cc(-c2ccccc2)n2nc(N)nc2n1 [MLS000122180-01] ?
1.007

###

System: α7 integrin (LacZ reporter in α7βgal+/− myoblasts)
Protocol Notes: Myoblast α7+/LacZ integrin FDG assay (Burkin assay in myoblasts, 96-well)
Assay type: cell-based, mouse
Test Conditions: 5 uM; α7+/LacZ myoblasts, 96-well
The entries below come with measured Burkin Assay in Myoblasts, signal relative to DMSO values attached.
Provide a numeric answer; units are not to be included.

The examples below pair each entry with its known result.
CCC(CC)C(=O)Nc1c(C(=O)N2CCN(c3ccccc3)CC2)oc2ccccc12 [MLS001116079-01] : 1.025
O=c1[nH]c(SCc2ccc(Cl)cc2)nc2ccsc12 [MLS000755214-01] : 0.9757
COc1ccc(S(=O)(=O)N2CCCCCC2)cc1C(=O)N1CCN(c2ccccc2O)CC1 [MLS001150751-01] : 0.9941
CCCCN1CC(=O)N2Cc3[nH]c4ccccc4c3C[C@H]2C1=O [MLS001165424-01] : 0.9966
CCN(C(=O)c1ccc(S(=O)(=O)N(C)C)cc1)C(C)C(=O)Nc1ccc(C)cc1 (stereo not shown) [MLS001170856-01] : 0.9744
NC(=O)c1sc2nc3c(cc2c1N)CCC3 [MLS000707378-01] : 1.024

Quick check: Burkin Assay in Myoblasts, signal relative to DMSO of CCc1nnc(NC(=O)c2ccc(S(=O)(=O)NCC(C)C)cc2)s1 [MLS000027478-01] ?
0.9721

How about CC(C(=O)Nc1ccc(C#N)cc1)N(C)CC(=O)Nc1cccc(F)c1 (stereo not shown) [MLS001033255-01] ?
1.017

How about Br.COc1ccc(C(=O)CN2CCCCC2)cc1 [MLS001004864-01] ?
1.109

How about CC1CCN(S(=O)(=O)c2ccc(S(=O)(=O)N3CCCC3)cc2)CC1 [MLS001217673-01] ?
0.9353

How about CCOc1ccccc1Nc1cc2n(c(=O)n1)CCc1cc(OC)c(OC)cc1-2 [MLS001215294-01] ?
0.7641

How about COc1cc(NC(=O)OCc2ccccc2)c2ncccc2c1 [MLS002667707-01] ?
1.02

How about COc1ccc(CNC(=O)COC(=O)CCc2c[nH]c3ccccc23)cc1 [MLS001033202-01] ?
0.9952

How about Oc1c(Br)cc(Br)cc1CNc1cccc2cccnc12 [MLS001183429-01] ?
0.7821

How about O=C(O)c1cc(N=Cc2c(O)c3ccccc3oc2=O)ccc1O [MLS001216260-01] ?
0.8531

How about Cc1noc(C)c1COc1ccc(C(=O)NCCc2ccccn2)cc1 [MLS001061374-01] ?
0.9826
